# target: T1, ARHGAP21, Q5T5U3
# T1 sequence (Q5T5U3 45-169, limits assumed, looked up): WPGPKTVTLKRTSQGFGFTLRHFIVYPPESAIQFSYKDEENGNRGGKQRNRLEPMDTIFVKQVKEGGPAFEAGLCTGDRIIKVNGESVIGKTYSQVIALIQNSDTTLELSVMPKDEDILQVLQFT
# assay-details: holdup assay
# Design: key: below the threshold = too weak to quantify, mostly under pKd 3.1 to 4
# test-parameters: plain residues with an end cap or a label only (N-terminal biotin on a linker: ahx)
property-measured: pKd

binder="APSRKLNTEI [TIAM1, Q13009]" property_measured=pKd value_measured="below the threshold"
binder="TESNLQTSSC [CGN, Q9P2M7]" property_measured=pKd value_measured=3.51
binder="QDEKVKESYV [ABCA1, O95477]" property_measured=pKd value_measured="below the threshold"
binder="TQKFRASTAL [FRMPD1, Q5SYB0]" property_measured=pKd value_measured="below the threshold"
binder="QNTDDVQTSF [ACE2, Q9BYF1]" property_measured=pKd value_measured=3.64

pKd reported for this binder QPRTWLQSPV [RTKN, Q9BST9] : below the threshold

For record TEAKLTETNA [MYO18A, Q92614] the listed pKd is below the threshold

Form: binder = EKQAKGDTEF [CACYBP, Q9HB71] ; pKd = below the threshold

Form field pKd, entry HTHSYIETHV [CNKSR2, Q8WXI2] : below the threshold
